biological target: MYLK (Homo sapiens, UniProt Q15746); test: MYLK assay (LanthaScreen Eu Kinase Binding Assay); conditions: 5 nM MYLK, 30 nM tracer 236, RT 1 h; read-out: MYLK Activites: IC50
Sequence (Q15746 whole entry): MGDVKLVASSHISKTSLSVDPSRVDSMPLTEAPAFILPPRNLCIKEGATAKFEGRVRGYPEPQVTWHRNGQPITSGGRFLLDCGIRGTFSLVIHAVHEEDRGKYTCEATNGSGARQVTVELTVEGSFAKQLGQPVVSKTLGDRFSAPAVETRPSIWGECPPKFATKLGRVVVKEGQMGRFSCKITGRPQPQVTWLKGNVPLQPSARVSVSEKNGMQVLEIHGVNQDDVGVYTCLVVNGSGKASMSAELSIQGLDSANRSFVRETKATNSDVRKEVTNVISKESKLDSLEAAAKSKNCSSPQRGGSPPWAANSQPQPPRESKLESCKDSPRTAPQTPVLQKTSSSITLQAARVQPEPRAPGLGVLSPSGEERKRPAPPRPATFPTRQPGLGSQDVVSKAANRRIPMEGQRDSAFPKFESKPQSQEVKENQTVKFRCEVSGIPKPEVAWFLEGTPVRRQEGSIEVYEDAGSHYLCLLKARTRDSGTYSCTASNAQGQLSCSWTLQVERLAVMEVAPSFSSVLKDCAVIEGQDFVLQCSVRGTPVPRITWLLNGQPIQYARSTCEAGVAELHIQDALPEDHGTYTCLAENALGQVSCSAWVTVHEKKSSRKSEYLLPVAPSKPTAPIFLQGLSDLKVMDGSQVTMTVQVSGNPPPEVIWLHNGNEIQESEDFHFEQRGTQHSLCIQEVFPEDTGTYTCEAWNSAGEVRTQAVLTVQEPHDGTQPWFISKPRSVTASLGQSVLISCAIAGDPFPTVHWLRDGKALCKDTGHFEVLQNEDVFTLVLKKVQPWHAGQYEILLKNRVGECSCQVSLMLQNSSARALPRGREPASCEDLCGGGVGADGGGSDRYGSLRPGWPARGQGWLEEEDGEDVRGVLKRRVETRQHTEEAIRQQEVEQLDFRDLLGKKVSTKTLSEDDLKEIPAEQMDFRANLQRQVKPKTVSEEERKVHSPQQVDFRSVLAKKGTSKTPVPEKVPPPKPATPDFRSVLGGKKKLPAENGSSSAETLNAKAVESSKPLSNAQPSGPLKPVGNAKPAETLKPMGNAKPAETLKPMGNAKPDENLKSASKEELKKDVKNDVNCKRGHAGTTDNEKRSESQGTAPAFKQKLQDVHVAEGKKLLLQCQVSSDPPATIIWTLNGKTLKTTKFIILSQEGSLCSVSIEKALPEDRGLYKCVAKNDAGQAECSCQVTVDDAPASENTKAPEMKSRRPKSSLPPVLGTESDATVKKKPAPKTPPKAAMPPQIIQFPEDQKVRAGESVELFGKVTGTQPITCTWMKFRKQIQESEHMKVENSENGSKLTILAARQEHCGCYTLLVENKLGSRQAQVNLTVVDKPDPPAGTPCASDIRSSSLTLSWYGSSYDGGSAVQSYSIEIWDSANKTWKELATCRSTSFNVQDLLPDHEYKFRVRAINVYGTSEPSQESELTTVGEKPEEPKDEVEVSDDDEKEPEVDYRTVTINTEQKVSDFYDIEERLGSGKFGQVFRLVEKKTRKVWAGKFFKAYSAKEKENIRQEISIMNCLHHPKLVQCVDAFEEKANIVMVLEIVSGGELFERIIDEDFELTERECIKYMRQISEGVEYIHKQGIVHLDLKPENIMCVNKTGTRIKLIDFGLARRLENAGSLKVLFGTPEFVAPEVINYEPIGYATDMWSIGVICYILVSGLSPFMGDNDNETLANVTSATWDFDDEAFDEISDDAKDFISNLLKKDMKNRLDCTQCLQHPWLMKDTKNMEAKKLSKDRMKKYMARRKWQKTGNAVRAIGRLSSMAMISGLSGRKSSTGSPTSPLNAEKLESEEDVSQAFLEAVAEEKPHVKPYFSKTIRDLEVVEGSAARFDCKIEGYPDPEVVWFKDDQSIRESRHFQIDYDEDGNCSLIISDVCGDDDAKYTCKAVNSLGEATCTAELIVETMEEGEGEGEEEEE
MEASUREMENT_TYPE: IC50

For this molecule ( COc1ccc2nc(Nc3ccc(OC)c(O)c3)c3n[nH]cc3c2c1 [Example #118] ), measured IC50 is < 5 µM

For this molecule ( O=C1COc2ccc(Nc3nc4ccc(F)cc4c4cn[nH]c34)cc2N1 [Example #324] ), measured IC50 is < 5 µM

For this molecule ( COc1cccc2c1nc(Nc1ccc(N3CCN(C)CC3)cc1)c1n[nH]cc12 [Example #166] ), measured IC50 is < 5 µM

For this molecule ( COc1cc(OC)c2nc(Nc3ccc(N4CCN(C5CC5)CC4)cc3)c3n[nH]cc3c2c1 [Example #252] ), measured IC50 is < 5 µM

For this molecule ( COc1ccc2nc(Nc3ccc(CN4CCOCC4)cc3)c3n[nH]cc3c2c1 [Example #237] ), measured IC50 is < 5 µM

For this molecule ( CCN1CCN(c2ccc(Nc3nc4ccc(OC)cc4c4c[nH]nc34)cc2F)CC1 [Example #240] ), measured IC50 is < 5 µM

For this molecule ( COc1cccc2c1nc(Nc1ccccc1)c1n[nH]cc12 [Example #261] ), measured IC50 is < 5 µM

For this molecule ( COc1ccc(Nc2nc3cc(OC)c(OC)cc3c3c[nH]nc23)cc1OC [Example #122] ), measured IC50 is < 5 µM

For this molecule ( COc1cccc2nc(Nc3ccc(N4CCOCC4)cc3)c3n[nH]cc3c12 [Example #202] ), measured IC50 is < 5 µM

For this molecule ( COc1ccc2nc(Nc3ccc(N(C)C4CCN(C)CC4)cc3)c3n[nH]cc3c2c1 [Example #192] ), measured IC50 is < 5 µM

For this molecule ( COc1ccc2nc(Nc3ccc4cc(C(=O)O)ccc4c3)c3n[nH]cc3c2c1 [Example #286] ), measured IC50 is < 5 µM

For this molecule ( COc1ccc2nc(Nc3cccc([S+](C)[O-])c3)c3n[nH]cc3c2c1 (centres unmarked) [Example #346] ), measured IC50 is < 5 µM

For this molecule ( COc1ccc2c(c1)nc(Nc1ccc3cn[nH]c3c1)c1n[nH]cc12 [Example #172] ), measured IC50 is < 5 µM

For this molecule ( COc1ccc2nc(Nc3cccc(N4CCNCC4)c3)c3n[nH]cc3c2c1 [Example #221] ), measured IC50 is < 5 µM

For this molecule ( COc1ccc2nc(Nc3ccc(N4CCNCC4)cc3)c3n[nH]cc3c2c1 [Example #184] ), measured IC50 is < 5 µM

For this molecule ( COc1ccc2nc(Nc3ccc4ncn(C)c4c3)c3n[nH]cc3c2c1 [Example #148] ), measured IC50 is < 5 µM

For this molecule ( COc1ccc2nc(Nc3ccc(N4CCN(C5CCCC5)CC4)cc3)c3n[nH]cc3c2c1 [Example #269] ), measured IC50 is < 5 µM

For this molecule ( c1cnc2c(c1)nc(Nc1ccc3[nH]ncc3c1)c1n[nH]cc12 [Example #56] ), measured IC50 is < 5 µM

For this molecule ( CN1CCN(c2ccc(Nc3nc4ccc(F)cc4c4cn[nH]c34)cc2)CC1 [Example #326] ), measured IC50 is < 5 µM

For this molecule ( COc1ccc2nc(Nc3ccc(C(=O)N4CCC(N(C)C)C4)cc3)c3n[nH]cc3c2c1 (centres unmarked) [Example #307] ), measured IC50 is < 5 µM

For this molecule ( COc1cc2nc(Nc3ccc4cn[nH]c4c3)c3n[nH]cc3c2cc1OC [Example #136] ), measured IC50 is < 5 µM

For this molecule ( COc1ccc2nc(Nc3ccc(N4CCN(CC5CC5)CC4)cc3)c3n[nH]cc3c2c1 [Example #272] ), measured IC50 is < 5 µM

For this molecule ( COc1ccc2nc(Nc3ccc(-c4nnn[nH]4)cc3)c3[nH]ncc3c2c1 [Example #98] ), measured IC50 is < 5 µM

For this molecule ( COc1cccc2c1nc(Nc1ccc(CN3CCN(C)CC3)cc1)c1n[nH]cc12 [Example #278] ), measured IC50 is < 5 µM

For this molecule ( COc1ccc2nc(Nc3ccc(C(=O)N4CCOCC4)cc3)c3n[nH]cc3c2c1 [Example #232] ), measured IC50 is < 5 µM

For this molecule ( COc1ccc2nc(Nc3ccc(C(=O)N4CCCN(C)CC4)cc3)c3n[nH]cc3c2c1 [Example #304] ), measured IC50 is < 5 µM

For this molecule ( Brc1ccc2nc(Nc3ccc4[nH]cnc4c3)c3n[nH]cc3c2c1 [Example #34] ), measured IC50 is < 5 µM

For this molecule ( O=C(O)c1cccc(Nc2nc3ccc(O)cc3c3c[nH]nc23)c1 [Example #296] ), measured IC50 is < 5 µM

For this molecule ( COc1ccc2c(c1)nc(Nc1ccc3[nH]c(C)nc3c1)c1n[nH]cc12 [Example #264] ), measured IC50 is < 5 µM

For this molecule ( COc1ccc2nc(Nc3ccc(F)cc3F)c3n[nH]cc3c2c1 [Example #360] ), measured IC50 is < 5 µM

For this molecule ( COc1ccc2nc(Nc3ccc(C4=NCCN4)cc3)c3n[nH]cc3c2c1 [Example #86] ), measured IC50 is < 5 µM

For this molecule ( COc1ccc2nc(Nc3ccc(C(=O)N4CCC(N5CCN(C)CC5)CC4)cc3OC)c3n[nH]cc3c2c1 [Example #295] ), measured IC50 is < 5 µM

For this molecule ( CN(C)c1ccc(Nc2nc3ccc(Br)cc3c3c[nH]nc23)cc1 [Example #84] ), measured IC50 is < 5 µM

For this molecule ( COc1cc(Nc2nc3ccc(OC)cc3c3c[nH]nc23)cc(OC)c1 [Example #341] ), measured IC50 is < 5 µM

For this molecule ( COc1cccc2c1nc(Nc1ccc3c(c1)OCCO3)c1n[nH]cc12 [Example #258] ), measured IC50 is < 5 µM

Where these numbers come from: patent US9499535B2
